Reference source: patent US20030045480A1

IC50 overview
Target: Src Kinase (p60c-Src) (Homo sapiens, UniProt P12931)
Sequence (P12931 whole entry): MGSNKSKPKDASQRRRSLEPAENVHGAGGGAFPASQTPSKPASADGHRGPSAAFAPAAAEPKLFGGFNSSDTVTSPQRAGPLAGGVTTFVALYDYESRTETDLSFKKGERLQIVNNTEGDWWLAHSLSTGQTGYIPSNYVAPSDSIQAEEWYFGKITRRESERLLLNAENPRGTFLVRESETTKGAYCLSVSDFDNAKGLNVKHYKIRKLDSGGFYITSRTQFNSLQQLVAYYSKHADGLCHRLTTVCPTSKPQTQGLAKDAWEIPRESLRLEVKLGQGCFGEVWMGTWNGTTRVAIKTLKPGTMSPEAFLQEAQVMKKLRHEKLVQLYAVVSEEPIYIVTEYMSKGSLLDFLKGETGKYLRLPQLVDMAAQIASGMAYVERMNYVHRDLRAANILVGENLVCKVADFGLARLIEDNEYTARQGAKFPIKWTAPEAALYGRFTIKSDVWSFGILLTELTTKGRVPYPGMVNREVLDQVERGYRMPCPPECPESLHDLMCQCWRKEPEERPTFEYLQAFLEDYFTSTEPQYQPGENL
Test: General Assay Method for Src-Kinase (DELFIA time-resolved fluorometry, poly(Glu,Tyr) substrate)
Conditions: Src kinase 1:8000, 100 μM ATP, 15 min. at room temp; read-out: Activity (uMol. Delfia assay. IC50)
Form entry: value (µM) — number only.

For orientation, consider the following solved cases.
compound="NC(=O)C1CCC(CNC(=O)Nc2ccc(N3CCCN(C(=O)C4CCNCC4)CC3)c(NC(=O)c3cc4ccccc4o3)c2)CC1 (stereo not shown)" resultunit=µM reportedvalue=36
compound="NC(=O)C(CCc1ccccc1)NC(=O)Nc1ccc(N2CCN(C3CCCCC3)CC2)c(NC(=O)CCCc2ccccc2)c1 (stereo not shown)" resultunit=µM reportedvalue=11
compound="NC(=O)C(CCc1ccccc1)NC(=O)Nc1ccc(N2CCCN(C(=O)C3CCNCC3)CC2)c(NC(=O)CCCc2ccccc2)c1 (stereo not shown)" resultunit=µM reportedvalue=22

Reported IC50 of CC(C)C(NS(=O)(=O)c1cc(NC(=O)/C=C/c2ccccc2)ccc1N1CCN(C2CCCCC2)CC1)C(N)=O (stereo not shown) : 42
